Target: human recombinant H-PGDS (Homo sapiens, UniProt O60760)
Sequence (O60760 whole entry): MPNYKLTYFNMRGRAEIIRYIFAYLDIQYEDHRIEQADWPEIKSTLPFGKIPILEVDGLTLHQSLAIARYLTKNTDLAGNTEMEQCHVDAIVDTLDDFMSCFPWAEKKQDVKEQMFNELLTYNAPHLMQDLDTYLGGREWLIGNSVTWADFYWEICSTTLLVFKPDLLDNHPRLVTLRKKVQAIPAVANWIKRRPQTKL
Test: Fluorescence Intensity h-PGDS TBA Enzyme Assay
Format: biochemical
Details: 1:175,000 human recombinant H-PGDS, highest inhibitor concentration typically 1 μM
Rule: measured IC50 below 40 nM gets YES; anything equal to or greater than 40 nM gets NO.

Check out these entries, answers already filled in.
CN(C)C(=O)CNC(=O)c1ccc(-c2ccccc2)nc1 [Example 374]; NO
CN1CCC(CNC(=O)c2ccc(-c3cccc(F)c3)nc2)CC1 [Example 113]; NO
O=C(NCCN1CCCCC1=O)c1ccc(-c2ccc(F)cc2)nc1 [Example 493]; NO
O=C(NCc1ccc(C(F)(F)F)cc1)c1ccc(-c2cccc(F)c2)nc1 [Example 409]; NO
CCOC(=O)C1(NC(=O)c2ccc(-c3ccccc3)nc2)CCOCC1 [Example 372]; NO
O=C(NCC1(O)CCCCC1)c1ccc(-c2cccc(F)c2)nc1 [Example 26]; NO
O=C(N[C@@H]1C[C@H]2CC[C@@H](C1)N2C(=O)N1CCC(O)CC1)c1ccc(-c2cccc(F)c2)nc1 [Example 596]; YES
O=C(NCc1ccccc1)c1ccc(-c2ccccc2)nc1 [Example 347, N-Benzyl-6-phenylnicotinamide]; YES
CNS(=O)(=O)c1ccc(CNC(=O)c2cnc(-c3cccc(F)c3)c(Cl)c2)cc1 [Example 554]; NO

Enquiry: Hi there! Is IC50 for CCOC(=O)CC[C@@H](NC(=O)c1ccc(-c2cccc(F)c2)nc1)C(=O)OCC [Example 166] below 40 nM, do you know?
Return: YES

====

Biological target: human recombinant H-PGDS (Homo sapiens, UniProt O60760)
Assay: Fluorescence Intensity h-PGDS TBA Enzyme Assay
Format: biochemical
Details: 1:175,000 human recombinant H-PGDS, highest inhibitor concentration typically 1 μM
Description: Fluorescence Intensity h-PGDSTBA Enzyme Assay Prostaglandin D Synthase (PGDS) converts the substrate prostaglandin H2 (PGH2) to prostaglandin D2. The depletion of PGH2 was measured via an Fe(II) reduction of the remaining PGH2 to malondialdehyde (MDA) and 12-HHT. […]
test_readout: IC50 (nM)
One number for each entry, in nM.

Some solved cases for reference:
COc1ccc(CNC(=O)c2ccc(-c3ccccc3)nc2)cc1; 8.3
CCC(C)NC(=O)c1ccc(-c2cccc(F)c2)nc1 (centres unmarked); 111
COC(=O)c1ccc(CNC(=O)c2ccc(-c3ccccc3)nc2)cc1; 14.1
COC(=O)CCCNC(=O)c1ccc(-c2cccc(F)c2)nc1; 13.2
CC(=O)N1CCC(CNC(=O)c2ccc(-c3ccc(F)cc3)nc2)CC1; 777

For every record below, what is its IC50?
1. O=C(NC(c1ccccc1)c1nc(CN2CCOCC2)no1)c1ccc(-c2cccc(F)c2)nc1 (centres unmarked)
2. COc1cccc(OCC(O)CNC(=O)c2ccc(-c3cccc(F)c3)nc2)c1 (centres unmarked)
3. Cc1nc(CCNC(=O)c2cnc(-c3cccc(F)c3)c(Cl)c2)cs1
4. CCOC(=O)C(C)(C)NC(=O)c1ccc(-c2cccc(F)c2)nc1
5. O=C(NCc1ccc(C(F)(F)F)cc1)c1ccc(-c2ccccc2)nc1
6. COc1ccc(OCC(O)CNC(=O)c2ccc(-c3cccc(F)c3)nc2)cc1 (centres unmarked)

Return:
70.9
10.8
12
223
42.7
6.64

Enquiry: Request the reported IC50 associated with O=C(NCCCNc1ccccn1)c1ccc(-c2cccc(F)c2)nc1
Return: 34

====

What IC50 was measured for each of the following?
Target: human recombinant H-PGDS (Homo sapiens)
Assay: Fluorescence Intensity h-PGDS TBA Enzyme Assay
Type: biochemical
Settings: 1:175,000 human recombinant H-PGDS, highest inhibitor concentration typically 1 μM
Experimental: Fluorescence Intensity h-PGDSTBA Enzyme Assay Prostaglandin D Synthase (PGDS) converts the substrate prostaglandin H2 (PGH2) to prostaglandin D2. The depletion of PGH2 was measured via an Fe(II) reduction of the remaining PGH2 to malondialdehyde (MDA) and 12-HHT. […]
Answers are plain numbers, in nM.

O=C(NCCNc1nccn2ccnc12)c1ccc(-c2cccc(F)c2)nc1 [Example 104]; 3.43
O=C(NC1CCN(Cc2ccc(Cl)cc2)C1=O)c1ccc(-c2ccc(F)cc2)nc1 (stereo not shown) [Example 474]; 734

For every record below, what is its IC50?
1. COc1cccc(-c2ccc(C(=O)NCc3ccc(S(C)(=O)=O)cc3)cn2)c1 [Example 316]
2. CC(C)(CNC(=O)c1ccc(-c2cccc(F)c2)nc1)N1CCOCC1 [Example 417]
3. O=C(NC1CCN(Cc2ccc(Cl)cc2)C1=O)c1ccc(-c2cccc(F)c2)nc1 (stereo not shown) [Example 431]
4. COC(=O)CC(NC(=O)c1ccc(-c2cccc(C)c2)nc1)c1cccnc1 (stereo not shown) [Example 230]
5. CNS(=O)(=O)c1ccc(CNC(=O)c2ccc(-c3cc(F)cc(OC)c3)nc2)cc1 [Example 559]
6. O=C(Nc1ccccc1)c1ccc(-c2cccc(F)c2)nc1 [Example 421, 6-(3-Fluorophenyl)-N-phenylnicotinamide]
7. CNS(=O)(=O)c1ccc(CNC(=O)c2ccc(-c3ccccc3)nc2)cc1 [Example 397]

Return:
1: 382; 2: 40.1; 3: 59; 4: 47.2; 5: 440; 6: 7.37; 7: 18.8

For every record below, what is its IC50?
1. O=C(NCCC1CCC(=O)N1CCN1CCOCC1)c1ccc(-c2cccc(F)c2)nc1 (stereo not shown) [Example 42]
2. CCOC(=O)CC[C@H](NC(=O)c1ccc(-c2ccc(F)cc2)nc1)C(=O)OCC [Example 471]
3. O=C(NCC1CCCN(c2ncc3c(n2)CCOC3)C1)c1ccc(-c2cccc(F)c2)nc1 (stereo not shown) [Example 84]
4. O=C(NCc1ccco1)c1ccc(-c2ccc(F)cc2)nc1 [Example 473]
5. CC(C)N1CCN(CCCNC(=O)c2ccc(-c3cccc(F)c3)nc2)C(=O)C1=O [Example 106]
6. C[C@@H](NC(=O)c1ccc(-c2cccc(F)c2)nc1)[C@@H](O)c1ccccc1 [Example 81]

Return:
1. 12.6
2. 192
3. 13.8
4. 381
5. 34.3
6. 41.2

For every record below, what is its IC50?
1. CCC(C)NC(=O)c1ccc(-c2cccc(C)c2)nc1 (stereo not shown) [Example 450]
2. Cc1cc(C)c(C#N)c(N2C[C@H](NC(=O)c3ccc(-c4cccc(F)c4)nc3)[C@@H](O)C2)n1 [Example 563]

Return:
42.5
5.15
